molecular target: Beta-2 adrenergic receptor (Homo sapiens) (UniProt P07550); assay: agonist-induced loss of surface beta2AR – cell-based, FAP fluorogen, flow cytometry, validation set, pilot screen (AID 504459); settings: Am2.2-beta2AR cells, at 10 µM, hits give high values;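 note: agonist-driven loss of surface beta2AR via internalization measured by FAP dye flow cytometry; reference of the scale not given here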
Sequence (P07550 whole entry, looked up): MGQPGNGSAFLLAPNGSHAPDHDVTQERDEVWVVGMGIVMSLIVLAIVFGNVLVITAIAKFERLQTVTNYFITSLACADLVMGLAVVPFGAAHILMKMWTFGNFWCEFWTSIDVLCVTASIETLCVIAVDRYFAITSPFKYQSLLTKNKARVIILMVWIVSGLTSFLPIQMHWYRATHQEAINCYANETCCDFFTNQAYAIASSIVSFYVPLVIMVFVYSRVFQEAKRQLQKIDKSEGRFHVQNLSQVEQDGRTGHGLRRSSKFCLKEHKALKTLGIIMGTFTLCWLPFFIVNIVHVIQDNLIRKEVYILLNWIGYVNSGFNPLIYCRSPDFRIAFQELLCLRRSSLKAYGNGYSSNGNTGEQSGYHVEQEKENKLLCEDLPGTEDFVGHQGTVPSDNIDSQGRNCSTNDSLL
Measurement Type: response (%)
Numbers only, in %.

Example cases with answers are listed next.
Molecule	response [%]
CN(CCO)CC(O)Cn1cnc2c1c(=O)n(C)c(=O)n2C (stereo not drawn) (tested in a mixture with another compound)	-18.1
CCc1nc2ccccc2c(NC(=O)CN2CC(C)CC(C)C2)c1C (stereo not drawn)	0.46
CCCCCCCC(=O)OCC(O)CO (stereo not drawn)	-8.74

// for each molecule below, give its response
1. COc1cc2c(cc1OC)C(c1ccc(-c3cc(Cl)ccc3Cl)o1)=NCC2
2. CCCN1CCC(NC(=O)Nc2ccc(Br)cc2)CC1

1: 60.6; 2: 1.9
